# Experimental System: Adrenergic receptor alpha-1 (Rattus norvegicus, UniProt P15823+P23944+P43140)
# Assay Notes: Compound was evaluated for inhibition of [3H]prazosin binding to Alpha-1 adrenergic receptor in rat forebrain homogenate.
# Assay type: tissue-based, Brain
Mark YES for Ki under 30 µM, NO if at or over.

Compound | Category Label
C[C@H](N)[C@H](O)c1ccc(O)c(O)c1 (stereo in doubt; 1) [LEVONORDEFRIN] | YES
CN[C@H](C)[C@@H](O)c1ccc(O)c(O)c1 | YES
CN[C@@H](C)[C@H](O)c1ccc(O)c(O)c1 | NO
C[C@H](N)[C@H](O)c1ccc(O)c(O)c1 (stereo in doubt; form 1) [LEVONORDEFRIN] | YES
CNC(C)C(O)c1ccc(O)c(O)c1 (stereo unspecified) | YES
C[C@H](N)[C@H](O)c1ccc(O)c(O)c1 (stereo in doubt; form 2) [LEVONORDEFRIN] | NO

Data credit: ChEMBL document CHEMBL1121888
